Reported TT values, Prothrombin (Rattus norvegicus).
Provide the reading as a plain figure in s.

Previously resolved entries follow.
N=C(N)NCCCC(NC(=O)[C@@H]1CC[C@H]2CN(C(=O)CCc3ccccn3)CC(=O)N21)C(=O)c1nccs1 (some centres undefined); 557
COc1ccc(CCC(=O)N2CC(=O)N3[C@@H](CC[C@H]3C(=O)NC(CCCN=C(N)N)C(=O)c3nccs3)C2)cc1 (some centres undefined); 633

Now consider a different compound.
**Query** Notebook entry, Prothrombin (Rattus norvegicus) assay: TT of N=C(N)NCCCC(NC(=O)[C@@H]1CC[C@H]2CN(C(=O)CCC3CCCCC3)CC(=O)N21)C(=O)c1nccs1 (some centres undefined) = ?
**Result** 320
